# test.name: Kinetic solubility of crystalline Form II in solvents
# Type: physicochemical
# conditions: MeOH, 25 °C, organic solvent or mixture, thermodynamic from solid, MeOH, single replicate, read-out: Solubility
reported.metric: solubility at 4 h

[[record]]
molecule = "C[C@H]1CC[C@H](N2CC(=O)N(Cc3ccc(F)c(F)c3)C3(CN(C=O)C3)C2=O)CC1 [Form II]"
readout_value = "> 100 mg/mL"


====

# test.name: Kinetic solubility of crystalline Form II in solvents
# Format: physicochemical
# conditions: Tert-Butylmethyl ether, 25 °C, organic solvent or mixture, thermodynamic from solid, Tert-Butylmethyl ether, single replicate, read-out: Solubility
reported.metric: solubility at 4 h (µg/mL)

[[record]]
compound = "C[C@H]1CC[C@H](N2CC(=O)N(Cc3ccc(F)c(F)c3)C3(CN(C=O)C3)C2=O)CC1 [Form II]"
reported_metric = "solubility at 4 h"
result_unit = "µg/mL"
readout_value = 1120


====

# target: CYP1A2 (Homo sapiens, UniProt P05177)
# Construct: from tissue; host or cells: pooled human liver microsomes
# Sequence (P05177 whole entry): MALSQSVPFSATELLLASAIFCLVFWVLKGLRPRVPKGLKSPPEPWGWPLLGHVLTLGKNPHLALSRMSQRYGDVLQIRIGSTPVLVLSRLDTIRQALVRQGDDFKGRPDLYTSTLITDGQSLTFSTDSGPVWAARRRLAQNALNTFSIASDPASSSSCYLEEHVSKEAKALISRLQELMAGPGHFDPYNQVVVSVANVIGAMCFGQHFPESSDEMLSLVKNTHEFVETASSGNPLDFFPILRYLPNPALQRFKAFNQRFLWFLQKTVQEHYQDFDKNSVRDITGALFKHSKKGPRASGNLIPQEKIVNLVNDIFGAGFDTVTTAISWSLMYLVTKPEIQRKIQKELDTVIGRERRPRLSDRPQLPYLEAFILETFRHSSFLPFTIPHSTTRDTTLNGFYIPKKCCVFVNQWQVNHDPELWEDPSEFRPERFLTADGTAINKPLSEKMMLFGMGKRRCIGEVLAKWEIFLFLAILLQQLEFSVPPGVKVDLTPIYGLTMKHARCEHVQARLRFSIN
# test.name: Time-dependent inhibition of CYP450 enzymes in human liver microsomes: CYP1A2
# Assay type: in vitro ADME
# conditions: human, pooled human liver microsomes; CYP1A2, 50 μM, 30 minutes incubation; read-out: % Activity NADPH T30
reported.metric: activity at 30 min, 50 µM (%)

[[record]]
compound = "C[C@H]1CC[C@H](N2CC(=O)N(Cc3ccc(F)c(F)c3)C3(CN(C=O)C3)C2=O)CC1 [Compound 1]"
readout_value = 85


====

# test.name: Kinetic solubility of crystalline Form II in solvents
# Format: physicochemical
# conditions: MeCN, 25 °C, organic solvent or mixture, thermodynamic from solid, MeCN, single replicate, read-out: Solubility
reported.metric: solubility at 4 h

[[record]]
compound = "C[C@H]1CC[C@H](N2CC(=O)N(Cc3ccc(F)c(F)c3)C3(CN(C=O)C3)C2=O)CC1 [Form II]"
readout_value = "> 101 mg/mL"


====

# target: CYP2D6 (Homo sapiens)
# Construct: from tissue; host or cells: pooled human liver microsomes
# Sequence (P10635 whole entry): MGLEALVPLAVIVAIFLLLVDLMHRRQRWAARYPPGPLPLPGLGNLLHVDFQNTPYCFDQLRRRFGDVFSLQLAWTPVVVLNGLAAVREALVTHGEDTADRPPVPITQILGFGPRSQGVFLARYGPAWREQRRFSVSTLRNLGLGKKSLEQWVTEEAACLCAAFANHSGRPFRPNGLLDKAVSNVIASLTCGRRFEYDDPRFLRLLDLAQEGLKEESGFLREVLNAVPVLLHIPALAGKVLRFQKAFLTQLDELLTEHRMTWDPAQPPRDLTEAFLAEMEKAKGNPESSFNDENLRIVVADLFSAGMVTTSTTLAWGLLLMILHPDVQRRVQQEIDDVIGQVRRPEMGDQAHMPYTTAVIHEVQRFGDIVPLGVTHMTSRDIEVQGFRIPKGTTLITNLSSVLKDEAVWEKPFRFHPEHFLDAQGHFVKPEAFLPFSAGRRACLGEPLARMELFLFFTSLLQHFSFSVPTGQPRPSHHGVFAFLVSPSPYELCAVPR
# test.name: Time-dependent inhibition of CYP450 enzymes in human liver microsomes: CYP2D6
# Assay type: in vitro ADME
# conditions: human, pooled human liver microsomes; CYP2D6, 25 μM, 30 minutes incubation; read-out: % Activity NADPH T30
reported.metric: activity at 30 min, 25 µM (%)

[[record]]
record_smiles = "C[C@H]1CC[C@H](N2CC(=O)N(Cc3ccc(F)c(F)c3)C3(CN(C=O)C3)C2=O)CC1"
reported_metric = "activity at 30 min, 25 µM"
readout_value = 90


====

# target: CYP2C9 (Homo sapiens)
# Construct: from tissue; host or cells: pooled human liver microsomes
# test.name: Time-dependent inhibition of CYP450 enzymes in human liver microsomes: CYP2C9
# Format: in vitro ADME
# conditions: human, pooled human liver microsomes; CYP2C9, 25 μM, 30 minutes incubation; read-out: % Activity NADPH T30
reported.metric: activity at 30 min, 25 µM (%)

[[record]]
record_smiles = "C[C@H]1CC[C@H](N2CC(=O)N(Cc3ccc(F)c(F)c3)C3(CN(C=O)C3)C2=O)CC1"
reported_metric = "activity at 30 min, 25 µM"
readout_value = 84


====

# test.name: Dog cassette dosing IV pharmacokinetics
# Format: in vivo
# conditions: plasma, male beagle dogs, read-out: Vss
reported.metric: Vd (L/kg)

[[record]]
record_smiles = "C[C@H]1CC[C@H](N2CC(=O)N(Cc3ccc(F)c(F)c3)C3(CN(C=O)C3)C2=O)CC1"
result_unit = "L/kg"
readout_value = 4.48


====

# test.name: Kinetic solubility of crystalline Form II in solvents
# Type: physicochemical
# conditions: 2-Me-THF, 25 °C, organic solvent or mixture, thermodynamic from solid, 2-Me-THF, single replicate, read-out: Solubility
reported.metric: solubility at 4 h (mg/mL)

[[record]]
molecule = "C[C@H]1CC[C@H](N2CC(=O)N(Cc3ccc(F)c(F)c3)C3(CN(C=O)C3)C2=O)CC1 [Form II]"
reported_metric = "solubility at 4 h"
result_unit = "mg/mL"
readout_value = 24


====

# target: CYP2C9 (Homo sapiens, UniProt P11712)
# Construct: from tissue; host or cells: pooled human liver microsomes
# Sequence (P11712 whole entry): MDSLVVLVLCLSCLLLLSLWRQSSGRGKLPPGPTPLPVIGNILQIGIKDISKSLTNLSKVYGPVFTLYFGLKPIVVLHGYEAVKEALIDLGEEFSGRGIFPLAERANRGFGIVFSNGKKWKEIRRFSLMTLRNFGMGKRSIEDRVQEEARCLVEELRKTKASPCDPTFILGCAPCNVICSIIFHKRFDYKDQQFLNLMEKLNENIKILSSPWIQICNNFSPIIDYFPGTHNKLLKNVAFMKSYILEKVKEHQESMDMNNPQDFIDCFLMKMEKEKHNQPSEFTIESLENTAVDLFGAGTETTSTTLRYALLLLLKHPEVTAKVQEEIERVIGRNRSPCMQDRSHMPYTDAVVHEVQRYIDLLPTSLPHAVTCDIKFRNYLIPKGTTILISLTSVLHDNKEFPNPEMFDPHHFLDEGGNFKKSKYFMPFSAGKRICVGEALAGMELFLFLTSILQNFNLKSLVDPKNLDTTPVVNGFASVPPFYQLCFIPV
# test.name: Time-dependent inhibition of CYP450 enzymes in human liver microsomes: CYP2C9
# Assay type: in vitro ADME
# conditions: human, pooled human liver microsomes; CYP2C9, 25 μM, time zero; read-out: % Activity NADPH T0
reported.metric: activity at 0 min, 25 µM (%)

[[record]]
record_smiles = "C[C@H]1CC[C@H](N2CC(=O)N(Cc3ccc(F)c(F)c3)C3(CN(C=O)C3)C2=O)CC1"
result_unit = "%"
readout_value = 83


====

# test.name: Monkey single dose pharmacokinetics
# Format: in vivo
# conditions: male, plasma, iv, Cynomolgus Monkey
Attribute: clearance
reported.metric: clearance (mL/min/kg)

[[record]]
compound = "C[C@H]1CC[C@H](N2CC(=O)N(Cc3ccc(F)c(F)c3)C3(CN(C=O)C3)C2=O)CC1 [Compound 1]"
result_unit = "mL/min/kg"
readout_value = 11.6

[[record]]
compound = "CC(=O)N1CC2(C1)C(=O)N(c1ccc(C#N)cc1F)CC(=O)N2Cc1ccc(C(F)(F)F)cc1 [Comparator D]"
result_unit = "mL/min/kg"
readout_value = 6.92

[[record]]
compound = "O=CN1CC2(C1)C(=O)N([C@H]1CC[C@H](C(F)F)CC1)CC(=O)N2Cc1ccc(C(F)(F)F)cc1 [Comparator E]"
result_unit = "mL/min/kg"
readout_value = 3.4

[[record]]
compound = "O=C1[C@H](C2COC2)N(Cc2ccc(C(F)(F)F)cc2)C(=O)CN1c1ncc(Cl)cc1F [Comparator C, reference compound]"
result_unit = "mL/min/kg"
readout_value = 13.8


====

# target: CYP2B6 (Homo sapiens, UniProt P20813)
# Construct: from tissue; host or cells: pooled human liver microsomes
# Sequence (P20813 whole entry): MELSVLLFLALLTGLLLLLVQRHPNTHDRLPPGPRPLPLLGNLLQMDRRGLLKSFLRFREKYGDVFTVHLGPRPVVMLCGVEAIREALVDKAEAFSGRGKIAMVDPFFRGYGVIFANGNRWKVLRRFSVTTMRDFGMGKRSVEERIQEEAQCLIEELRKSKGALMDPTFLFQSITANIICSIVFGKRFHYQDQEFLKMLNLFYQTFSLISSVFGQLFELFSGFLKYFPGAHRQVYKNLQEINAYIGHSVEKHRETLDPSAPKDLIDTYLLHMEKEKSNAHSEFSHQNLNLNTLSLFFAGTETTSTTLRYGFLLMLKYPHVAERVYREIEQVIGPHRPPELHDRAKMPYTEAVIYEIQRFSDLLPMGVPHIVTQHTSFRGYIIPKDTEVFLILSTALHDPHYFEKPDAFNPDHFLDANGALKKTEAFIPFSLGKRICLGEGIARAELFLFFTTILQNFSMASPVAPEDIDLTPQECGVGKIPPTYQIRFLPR
# test.name: Time-dependent inhibition of CYP450 enzymes in human liver microsomes: CYP2B6
# Assay type: in vitro ADME
# conditions: human, pooled human liver microsomes; CYP2B6, 50 μM, time zero; read-out: % Activity NADPH T0
reported.metric: activity at 0 min, 50 µM

[[record]]
record_smiles = "C[C@H]1CC[C@H](N2CC(=O)N(Cc3ccc(F)c(F)c3)C3(CN(C=O)C3)C2=O)CC1"
readout_value = "76%"


====

# target: bovine cardiac myofibrils (Bos taurus, UniProt Q9BE39)
# Construct: full-length cardiac myosin in the context of the native sarcomere; from tissue; host or cells: bovine cardiac left ventricular tissue, detergent-skinned myofibrils
# Sequence (Q9BE39 whole entry): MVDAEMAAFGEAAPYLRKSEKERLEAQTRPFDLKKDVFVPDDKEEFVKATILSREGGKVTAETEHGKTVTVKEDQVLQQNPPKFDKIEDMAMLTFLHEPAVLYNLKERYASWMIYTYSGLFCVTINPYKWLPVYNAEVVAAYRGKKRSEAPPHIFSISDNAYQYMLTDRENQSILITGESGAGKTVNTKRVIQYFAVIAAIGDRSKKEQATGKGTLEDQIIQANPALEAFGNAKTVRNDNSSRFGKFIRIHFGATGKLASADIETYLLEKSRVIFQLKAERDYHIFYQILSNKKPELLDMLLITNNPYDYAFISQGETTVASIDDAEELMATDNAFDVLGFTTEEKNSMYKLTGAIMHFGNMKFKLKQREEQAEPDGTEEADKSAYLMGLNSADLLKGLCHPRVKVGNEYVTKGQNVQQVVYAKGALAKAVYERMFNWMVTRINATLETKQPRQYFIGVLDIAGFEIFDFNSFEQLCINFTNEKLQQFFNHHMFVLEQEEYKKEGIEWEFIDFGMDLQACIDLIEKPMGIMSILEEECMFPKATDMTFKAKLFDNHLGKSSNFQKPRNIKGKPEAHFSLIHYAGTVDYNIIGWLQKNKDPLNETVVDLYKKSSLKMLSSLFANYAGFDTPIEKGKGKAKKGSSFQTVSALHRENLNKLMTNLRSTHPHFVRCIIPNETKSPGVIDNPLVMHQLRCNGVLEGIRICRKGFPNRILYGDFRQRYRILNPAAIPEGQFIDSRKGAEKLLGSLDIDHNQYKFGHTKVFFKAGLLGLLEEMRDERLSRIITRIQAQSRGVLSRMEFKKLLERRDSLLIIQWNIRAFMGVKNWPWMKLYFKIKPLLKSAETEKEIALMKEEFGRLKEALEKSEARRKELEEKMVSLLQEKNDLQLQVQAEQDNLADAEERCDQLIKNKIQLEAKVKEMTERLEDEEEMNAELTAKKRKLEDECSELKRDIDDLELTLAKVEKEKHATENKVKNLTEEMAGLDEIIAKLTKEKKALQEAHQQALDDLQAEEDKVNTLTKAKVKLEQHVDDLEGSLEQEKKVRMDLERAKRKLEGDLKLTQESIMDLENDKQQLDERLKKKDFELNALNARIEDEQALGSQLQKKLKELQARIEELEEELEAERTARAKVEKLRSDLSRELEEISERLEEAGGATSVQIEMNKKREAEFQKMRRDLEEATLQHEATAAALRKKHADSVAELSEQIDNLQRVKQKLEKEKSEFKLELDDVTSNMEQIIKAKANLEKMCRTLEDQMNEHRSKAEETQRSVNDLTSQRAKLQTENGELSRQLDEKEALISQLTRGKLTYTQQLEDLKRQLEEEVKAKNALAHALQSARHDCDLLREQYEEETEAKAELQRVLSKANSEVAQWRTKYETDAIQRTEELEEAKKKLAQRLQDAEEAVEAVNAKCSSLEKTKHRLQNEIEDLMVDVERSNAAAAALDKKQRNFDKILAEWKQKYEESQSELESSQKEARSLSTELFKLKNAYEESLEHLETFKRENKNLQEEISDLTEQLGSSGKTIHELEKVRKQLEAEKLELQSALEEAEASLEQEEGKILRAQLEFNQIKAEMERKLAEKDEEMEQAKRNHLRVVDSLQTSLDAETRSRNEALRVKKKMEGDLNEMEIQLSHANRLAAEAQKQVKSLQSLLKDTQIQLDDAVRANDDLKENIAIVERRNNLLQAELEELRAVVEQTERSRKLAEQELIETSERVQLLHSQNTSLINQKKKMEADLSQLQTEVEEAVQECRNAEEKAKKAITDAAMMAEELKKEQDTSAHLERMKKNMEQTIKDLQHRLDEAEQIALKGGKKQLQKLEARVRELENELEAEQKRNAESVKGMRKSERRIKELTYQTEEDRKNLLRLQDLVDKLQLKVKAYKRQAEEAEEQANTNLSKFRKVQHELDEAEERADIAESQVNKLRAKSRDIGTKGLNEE
# Sequence (P85100 whole entry partner): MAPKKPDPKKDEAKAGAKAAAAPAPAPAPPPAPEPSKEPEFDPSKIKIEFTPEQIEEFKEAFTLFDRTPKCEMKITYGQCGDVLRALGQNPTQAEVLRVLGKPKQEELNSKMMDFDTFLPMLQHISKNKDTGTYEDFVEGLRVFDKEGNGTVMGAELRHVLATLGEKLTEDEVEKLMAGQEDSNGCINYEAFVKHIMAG
# Sequence (Q3SZE5 whole entry partner): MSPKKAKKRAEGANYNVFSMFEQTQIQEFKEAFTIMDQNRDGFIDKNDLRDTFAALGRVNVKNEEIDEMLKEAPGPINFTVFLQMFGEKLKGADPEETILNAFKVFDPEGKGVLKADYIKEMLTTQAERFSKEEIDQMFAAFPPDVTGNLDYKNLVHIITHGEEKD
# test.name: Skinned bovine cardiac myofibril ATPase assay (PK/LDH-coupled)
# Format: biochemical
# conditions: bovine cardiac myofibril ATPase activity; Ca2+ for 50% or 75% activation
reported.metric: CDMF IC15

[[record]]
molecule = "O=CN1CC2(C1)C(=O)N([C@H]1CC[C@H](C(F)F)CC1)CC(=O)N2Cc1ccc(C(F)(F)F)cc1"
readout_value = "1.3 µM"

[[record]]
molecule = "CC(=O)N1CC2(C1)C(=O)N(c1ccc(C#N)cc1F)CC(=O)N2Cc1ccc(C(F)(F)F)cc1"
readout_value = "1.1 µM"

[[record]]
molecule = "C[C@H]1CC[C@H](N2CC(=O)N(Cc3ccc(F)c(F)c3)C3(CN(C=O)C3)C2=O)CC1"
readout_value = "1.5 µM"

[[record]]
molecule = "O=CN1CC2(C1)C(=O)N(c1ccc(F)cc1F)CC(=O)N2Cc1ccc(Cl)cc1"
readout_value = "1.8 µM"

[[record]]
molecule = "O=C1[C@H](C2COC2)N(Cc2ccc(C(F)(F)F)cc2)C(=O)CN1c1ncc(Cl)cc1F [Comparator C, reference compound]"
readout_value = "1.1 µM"


====

# target: CYP2C8 (Homo sapiens)
# Construct: from tissue; host or cells: pooled human liver microsomes
# test.name: Time-dependent inhibition of CYP450 enzymes in human liver microsomes: CYP2C8
# Format: in vitro ADME
# conditions: human, pooled human liver microsomes; CYP2C8, 50 μM, 30 minutes incubation; read-out: % Activity NADPH T30
reported.metric: activity at 30 min, 50 µM (%)

[[record]]
compound = "C[C@H]1CC[C@H](N2CC(=O)N(Cc3ccc(F)c(F)c3)C3(CN(C=O)C3)C2=O)CC1 [Compound 1]"
target = "CYP2C8 (Homo sapiens)"
reported_metric = "activity at 30 min, 50 µM"
readout_value = 79


====

# target: CYP3A4 (Homo sapiens)
# Construct: from tissue; host or cells: pooled human liver microsomes
# Sequence (P08684 whole entry): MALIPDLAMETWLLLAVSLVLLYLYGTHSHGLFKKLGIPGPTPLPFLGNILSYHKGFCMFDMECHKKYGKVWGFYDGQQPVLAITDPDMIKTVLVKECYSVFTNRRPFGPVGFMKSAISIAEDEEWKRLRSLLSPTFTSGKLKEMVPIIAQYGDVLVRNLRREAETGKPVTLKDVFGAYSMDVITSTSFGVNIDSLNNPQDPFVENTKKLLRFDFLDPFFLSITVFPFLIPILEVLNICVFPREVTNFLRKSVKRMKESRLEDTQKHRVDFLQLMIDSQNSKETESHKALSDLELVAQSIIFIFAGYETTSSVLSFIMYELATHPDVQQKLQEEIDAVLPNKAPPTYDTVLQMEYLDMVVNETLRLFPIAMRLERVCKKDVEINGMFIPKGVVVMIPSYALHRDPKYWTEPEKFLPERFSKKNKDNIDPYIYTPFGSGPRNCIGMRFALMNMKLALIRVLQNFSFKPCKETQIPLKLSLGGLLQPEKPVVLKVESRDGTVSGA
# test.name: Time-dependent inhibition of CYP450 enzymes in human liver microsomes: CYP3A4-T (testosterone probe)
# Format: in vitro ADME
# conditions: human, pooled human liver microsomes; CYP3A4-T (testosterone probe), 25 μM, time zero; read-out: % Activity NADPH T0
reported.metric: activity at 0 min, 25 µM (%)

[[record]]
molecule = "O=C1[C@H](C2COC2)N(Cc2ccc(C(F)(F)F)cc2)C(=O)CN1c1ncc(Cl)cc1F [Comparator C, reference compound]"
readout_value = 41

[[record]]
molecule = "C[C@H]1CC[C@H](N2CC(=O)N(Cc3ccc(F)c(F)c3)C3(CN(C=O)C3)C2=O)CC1"
readout_value = 80

